Give growth for every item shown.
Tested on: SW-620 colon
PROTOCOL_DETAILS: NCI-60 one-dose screen, 48 h (100 = growth as untreated, 0 = no growth, -100 = all killed)
CONDITION_DETAILS: 10 µM unless noted
Procedure: Growth inhibition of the SW-620 human tumor cell line is measured as a screen for anti-cancer activity. Cells are grown in 96 well plates and exposed to the test compound for 48 hours. Compounds are tested at a single concentration, which is 10^-5 M for most compounds. The reported endpoint is percent growth (GI% or GIPRCNT), where numbers from 0 - 100% represent growth inhibition, and numbers from -100% - 0 represent cell death. For example, a value of 40 represents 60% growth inhibition. […]
Compounds without any hit were thinned out: in the full panel of roughly 83,000, 20% have a hit. Calls of active or inactive are those of the source. The calls were made as follows: active = growth percent below 10; inactive = the rest.

IN: Find the measured growth: item CS(=O)(=O)c1ccc(-n2nc(-c3ccc(Br)cc3)c3ccccc3c2=O)cc1 , target or system SW-620 colon.
OUT: 104% (inactive)

IN: Recall the recorded growth for Cn1cccc1-c1nc2c3c(ccc2[nH]1)C(=O)c1ccccc1C3=O with SW-620 colon and state it.
OUT: 105% (inactive)

IN: Form entry - test system: SW-620 colon; read-out: growth; molecule: Cn1nc(N)c2cc([C@@H]3Nc4ccc5[nH]ncc5c4[C@H]4C5CCC(C5)[C@@H]34)ccc21 (some centres not stated)
OUT: 22.4% (inactive)

IN: Lab note: need growth with SW-620 colon for entry Cn1c(O)c(N=NC(=O)c2cc(-c3ccccc3)on2)c2ccccc21 , please look it up.
OUT: 105% (inactive)

IN: For SW-620 colon, provide growth of Cc1oc(-c2ccc(Cl)cc2Cl)cc1C(=O)Nc1nccs1 please.
OUT: 94.4% (inactive)

IN: Entry COc1ccc(Nc2cc(C)nc(N3CCN(c4ccnc5cc(Cl)ccc45)CC3)n2)cc1 , system SW-620 colon: what growth was measured?
OUT: 25.4% (inactive)

IN: Query for SW-620 colon: what growth does the record show for O=c1ccccc(-c2ccc(-c3ccco3)cc2)c1O ?
OUT: 27.8% (inactive)

IN: So what growth did C#Cc1cccc(NC(=O)c2ccccc2NC(=O)CCl)c1 get with SW-620 colon?
OUT: 79.5% [8.25 µM] (inactive)

IN: // fetch SW-620 colon growth for CN1CCN=C1c1ccc(NC(=O)c2ccc(C(=O)Nc3ccc(C4=NCCN4C)cc3)cc2)cc1
OUT: 102% (inactive)

IN: For the record O=C1OC(c2ccccc2)C(O)=C1c1ccccc1 (configuration not stated) , what value of growth is listed for SW-620 colon?
OUT: 110% (inactive)

IN: Short answer please: growth, SW-620 colon, entry O=C(Oc1cccnc1)c1ccsc1Nc1ccnc(C(F)(F)F)c1
OUT: 21% (inactive)

IN: Value wanted: growth (SW-620 colon) of entry Cc1cc(C)nc(SC2=C(Nc3cccc(Cl)c3C)C(=O)N(Cc3ccccc3)C2=O)n1
OUT: 65.4% [30 µM] (inactive)

---

Test system: RXF 393 renal
PROTOCOL_DETAILS: NCI-60 one-dose screen, 48 h
CONDITION_DETAILS: 10 µM unless noted
About 83,000 compounds went through this panel and 20% of them were active in at least one assay; those are over-represented in the sample as a whole. Active and inactive are the calls of the source. The calls were made as follows: active = growth percent below 10; inactive = the rest.
Return exactly one item of label 1 (active), label 0 (inactive)

IN: Hey, what did the test say about C=C1C(=O)O[C@H]2[C@H]1CC/C(COC(=O)NCc1ccc(OC)c(OC)c1)=C\CC[C@@]1(C)O[C@@H]21 ?
OUT: label 0

IN: Hi team, can someone confirm the assay call for CC(C)(CCCN=C(N)Nc1ccc(Cl)cc1)c1ccc(F)cc1 ?
OUT: label 0

IN: Dear colleague, could you share the recorded outcome for CNC(=O)c1cc(Oc2ccc(NC(=O)Nc3ccc(Cl)c(SC)c3)c(F)c2)ccn1 when you have a moment?
OUT: label 0

IN: Dear all, I need the recorded test outcome for CCC#CC[C@H](O)C/C=C1/C(=O)C=C[C@@H]1C/C=C\CCCC(=O)OC , thank you.
OUT: label 1

---

System: KM12 colon
PROTOCOL_DETAILS: NCI-60 one-dose screen, 48 h
CONDITION_DETAILS: 10 µM unless noted
This is part of a sample that, as a whole, favours compounds with a hit. Of some 83,000 tested, about 20% had one in any assay. Calls of active or inactive are those of the source. Rule for the calls: active = growth percent below 10; inactive = the rest.
Thanks in advance; please answer with one of these: active, inactive

IN: What classification did COc1cc2c(cc1-c1c(C)noc1C)ncc1nc(C3CCC(F)(F)CC3)n([C@H](C)COC(F)F)c12 end up with in this test?
OUT: inactive

IN: Answer briefly: the call reported for Cc1ccc(C2=NN3C(C2)c2cc(Br)ccc2OC32CCN(Cc3ccccc3)CC2)o1 (configuration not stated) in this assay.
OUT: inactive

IN: Call for entry COc1cc(C(=O)/C=C/c2cccnc2Nc2ccc(Cl)cc2)cc(OC)c1OC :
OUT: active

IN: Look up the recorded call for Fc1ccc2[nH]cc(SSc3c[nH]c4ccc(F)cc34)c2c1 in this test.
OUT: inactive

IN: Hi, sorry to bother you, what did the test record for CN1CCN(c2ccc3nc(-c4ccc(OCCCCN5CCN(CCCCN6C(=O)c7cccc8cccc(c78)C6=O)CC5)cc4)[nH]c3c2)CC1 ?
OUT: inactive

IN: Dear all, I need the recorded test outcome for O=C(N=Nc1c(O)[nH]c2ccccc12)c1cc(-c2ccccc2)on1 , thank you.
OUT: inactive

IN: Outcome? Cn1cc(-c2nonc2-c2c[nH]c3ccc(F)cc23)c2cccnc21
OUT: inactive

IN: Any idea what this test logged for COc1ccccc1NS(=O)(=O)c1ccc2oc(SC(C)C)nc2c1 ?
OUT: inactive

IN: Check the results log: what was the call for Cc1cc(N2CCOCC2)nc(N[C@@H]2CCC[C@H](Nc3ccnc4cc(Cl)ccc34)C2)n1 ?
OUT: inactive

IN: What call does the record list for Cc1ccccc1COc1ccc(-c2onc(C)c2-c2ccc(Cl)cc2)cc1 ?
OUT: inactive

IN: Hello, I am checking results. What call was entered for CCCc1cc(=O)n2c(C(=O)Nc3cccc(C(=O)OCC)c3)c(C(=O)Nc3ccc(F)cc3)sc2n1 ?
OUT: inactive

IN: Name the outcome recorded for Cn1cc(-c2nonc2-c2c[nH]c3ccccc23)c2cccnc21 in the assay.
OUT: inactive

IN: What is the recorded call for this compound in the test? Cn1cc(-c2nonc2-c2cn(C)c3ccc(F)cc23)c2ccccc21
OUT: inactive

IN: Hi, sorry to bother you, what did the test record for CC1=CC(C)(C)Nc2ccc(Cc3ccc4c(c3)C(C)=CC(C)(C)N4)cc21 ?
OUT: inactive

IN: For Brc1ccc(-c2csc(Nc3ccccn3)n2)cc1 , which call appears in the assay record?
OUT: inactive

IN: Which outcome was assigned to Cn1c(=O)c2c(nc3n(-c4ccc(Cl)cc4Cl)c(Sc4nc(-c5ccccc5)c(C#N)c(=O)[nH]4)cn23)n(C)c1=O in this test?
OUT: inactive

IN: Lab log entry: COc1cc(/C=C/C(=O)c2ccc(O)c(CN3CCN(c4cc5c(cc4F)c(=O)c(C(=O)O)cn5C4CC4)CC3)c2)cc(OC)c1OC — outcome as called in the assay?
OUT: inactive

IN: Identify the outcome logged in this assay for the compound shown: C#CCOc1ccc2ncnc(Nc3cccc(CNC(=O)C=C)c3)c2c1
OUT: inactive

IN: What was the test verdict on Cc1cc(N2CCN(c3ccnc4cc(Cl)ccc34)CC2)nc(N2CCOCC2)n1 ?
OUT: inactive

IN: Lab log entry: CCCCCCCCCCCCC[N+](C)(C)Cc1ccccc1 — outcome as called in the assay?
OUT: active

IN: Which outcome was entered for the compound Cc1ccc(C2Oc3ccccc3C3CC(c4cccs4)=NN32)cc1 (configuration not stated) in this test?
OUT: inactive

IN: // outcome(item) with item = COc1ccc(SC2c3ccc(C)cc3Oc3nc(N)c(C#N)c(N)c32)cc1 (configuration not stated)
OUT: active

IN: So what was the verdict on CC(=O)Nc1ccc(-n2c(O)c(/C=N/NC(=O)Cc3ccccc3Nc3c(Cl)cccc3Cl)sc2=S)cc1 in this test?
OUT: inactive

IN: Would you mind telling me which call this test gave O=C(/C=C/c1ccc(C(F)(F)F)cc1)Nc1ccc(C=C2c3ccccc3C(=O)c3ccccc32)cc1 ?
OUT: inactive

IN: What was the test verdict on COc1ccc(C2CC(c3ccc4ccccc4c3)=NN2/C=C2\SC(=S)N(NC(=O)Cc3ccccc3Nc3c(Cl)cccc3Cl)C2=O)cc1 (configuration not stated) ?
OUT: inactive

IN: Hey, what did the test say about CSc1nc(Nc2cccc(NC(=O)/C(C#N)=C/c3c(Cl)cccc3Cl)c2)c(C#N)c(-c2cccc([N+](=O)[O-])c2)n1 ?
OUT: inactive

IN: Dear all, I need the recorded test outcome for C=CCSSC1N=CNc2nc[nH]c21 (configuration not stated) , thank you.
OUT: inactive
